- Test system: A498 renal
- EXPERIMENT SUMMARY: NCI tumour cell line growth inhibition, 48 h

COMPOUND | TGI
CCOC(=O)c1nc2c(OC)nn(O)cc-2c1[N+](=O)[O-] | 36.2 µM
CN1C(=O)c2ccccc2NC(=O)C12O[C@@H]2c1ccccc1 (some centres undefined) | > 100 µM
COCC(OC)C(CC=C(C#N)C#N)OC (centres undefined) | > 100 µM
O=C(O)c1ccccc1CC(Cc1ccc2c(c1)CCC2)C(=O)O (centres undefined) | > 100 µM
CN(C)CCC(/C=C/c1ccccc1)=N\Nc1ccccc1 | 28.2 µM
Cc1nc(C)c(C(=O)NNC(=O)C[N+](C)(C)C)cc1C(=O)NNC(=O)C[N+](C)(C)C | > 100 µM
CC12CCC(=O)C[C@H]1CCC(OC=O)C2Br (some centres undefined) | > 100 µM
N#C/C(=C\c1ccc2ccccc2c1)C(=O)c1ccccc1 | > 100 µM
CCOC(=O)c1cccc(N=Nc2nc[nH]c2/C=C/C(=O)OC)c1 | 66.8 µM

###

- System: BT-549 breast
- EXPERIMENT SUMMARY: NCI tumour cell line growth inhibition, 48 h; in the data active = GI50 below about 0.43 µM; inactive = the rest
Classes used: label 1 = active, label 0 = inactive

SMILES | TESTED TARGET | ASSIGNED LABEL
CCN1CCN(c2cc(C)c3cc(NC(=O)c4ccc(OC)c(OC)c4)ccc3n2)CC1 | BT-549 breast | label 0
COc1cnc2c(c1)C(=O)c1c-2n(CCCNC2=NCCS2)c(=O)c2cc([N+](=O)[O-])ccc12 | BT-549 breast | label 1
CC(C)(/C=C(\C#N)C(=O)N1CCC[C@@H](n2nc(-c3ccc(Oc4ccccc4)cc3F)c3c(N)ncnc32)C1)N1CCN(C2COC2)CC1 | BT-549 breast | label 0
O=C(c1ccco1)c1c(C(F)(F)F)nc2ccc(Cl)cc2[n+]1[O-] | BT-549 breast | label 0
N#Cc1nn(-c2cc(=O)[nH]c3ccc(Cl)cc23)c(N)c1C#N | BT-549 breast | label 0

###

- System: HCC-2998 colon
- EXPERIMENT SUMMARY: NCI tumour cell line growth inhibition, 48 h
Entries and their GI50

SMILES | GI50
CCN1CCN(c2cc(C)c3cc(NC(=O)c4ccc(OC)c(OC)c4)ccc3n2)CC1 | > 57300 nM
COC(=O)c1c2c(c(C)[n+]([O-])c1C)C(=O)C=C(NCc1ccc(F)cc1)C2=O | 442 nM
NC(=O)c1c(NC(=O)c2ccccc2)sc2c1CCC(=O)C2 | 2100 nM
COc1cnc2c(c1)C(=O)c1c-2n(CCCNC2=NCCS2)c(=O)c2cc([N+](=O)[O-])ccc12 | 1030 nM
Cc1nnc(Nc2ccc(NC(=O)Nc3ccc(Cl)cc3)cc2)c2ccccc12 | 2840 nM
CN(C)CC[C@H](CSc1ccccc1)Nc1ccc(S(=O)(=O)NC(=O)c2ccc(N3CCN(Cc4ccccc4-c4ccc(Cl)cc4)CC3)cc2)cc1[N+](=O)[O-] | 457 nM

###

- Test system: MCF7 breast
- EXPERIMENT SUMMARY: NCI tumour cell line growth inhibition, 48 h
Some compounds, each annotated with its measured TGI.

COMPOUND | TGI
COc1ccc(C2OC(c3ccncc3)=NN2C)cc1F (centres undefined) | > 100 µM
CCOC(=O)c1cccc(N=Nc2nc[nH]c2/C=C/C(=O)OC)c1 | > 100 µM
Cc1ccc(C2=CC(=O)OC(C[P+](c3ccccc3)(c3ccccc3)c3ccccc3)(c3ccccc3)O2)cc1 (centres undefined) | 56.6 µM
NC(=O)c1c(NC(=O)c2ccccc2)sc2c1CCC(=O)C2 | 9.02 µM
CC(C)(C)[Si](C)(C)OCC1OC(n2ccc(=O)[nH]c2=O)C(O[Si](C)(C)C(C)(C)C)/C1=C/C#N (centres undefined) | > 61.9 µM
O=C(O)[C@H]1CCCN1CP(=O)(O)CN1CCC[C@@H]1C(=O)O | > 100 µM
COc1cnc2c(c1)C(=O)c1c-2n(CCCN2CCOCC2)c(=O)c2cc(Cl)ccc12 | > 100 µM
CN(C)CC[C@H](CSc1ccccc1)Nc1ccc(S(=O)(=O)NC(=O)c2ccc(N3CCN(Cc4ccccc4-c4ccc(Cl)cc4)CC3)cc2)cc1[N+](=O)[O-] | > 41.3 µM
COc1ccc(C(=O)Nc2ccc(O)c(=O)cc2)cc1 | 65 µM

###

The following compounds are shown together with reported GI50 values.
- Test system: CAKI-1 renal
- EXPERIMENT SUMMARY: NCI tumour cell line growth inhibition, 48 h

COMPOUND | TESTED TARGET | GI50
COc1ccc2nc3ccccc3c(NCc3ccc(F)cc3)c2c1 | CAKI-1 renal | 1730 nM
Cc1nc(Nc2cccnc2)sc1C(=O)/C=C/c1ccc(F)cc1 | CAKI-1 renal | 3390 nM
Nc1ncn([C@@H]2O[C@H](CO)[C@@H](O)[C@H]2O)c(=O)n1 | CAKI-1 renal | 275 nM
N#Cc1nn(-c2cc(=O)[nH]c3ccc(Cl)cc23)c(N)c1C#N | CAKI-1 renal | > 100000 nM
COc1ccc(-c2nnc3n(C)c(=O)c4ccccc4n23)cc1N | CAKI-1 renal | 1950 nM
CNCCOC(=O)/C=C1\CC[C@H]2[C@@H]([C@@H](O)C(=O)[C@@H]3[C@]2(C)CC[C@H](O)[C@]3(C)C(=O)OC)[C@H]1C | CAKI-1 renal | 315 nM
CC(NCCC(c1ccccc1)c1ccccc1)c1ccccc1 (stereo not drawn) | CAKI-1 renal | 2730 nM
NC1CCN(Cc2ccccc2)CC1 | CAKI-1 renal | > 100000 nM
N=c1c2c(-c3ccccc3)c(-c3ccccc3)n(Cc3ccccc3)c2ncn1C1CCC(O)CC1 (stereo not drawn) | CAKI-1 renal | 147 nM
O=c1oc2ccc(-c3ccc(F)cc3F)cc2c(=O)n1-c1cccc(C(F)(F)F)c1 | CAKI-1 renal | 1220 nM
CC(=O)Nc1ccc(-c2csc(Nc3cccc(-c4csc(C)n4)c3)n2)cc1 | CAKI-1 renal | 1610 nM
Cc1nnc(Nc2ccc(NC(=O)Nc3ccc(Cl)cc3)cc2)c2ccccc12 | CAKI-1 renal | 3490 nM
COc1cc(N(CCC#N)CCC#N)ccc1/C(N=Nc1ccc(Cl)cc1)=N/NC(=O)c1cc(Br)ccc1O | CAKI-1 renal | 51.2 µg/mL

###

- Tested on: LOX IMVI melanoma
- EXPERIMENT SUMMARY: NCI tumour cell line growth inhibition, 48 h
# maps each entry to its TGI
MEASURED ATTRIBUTE: TGI (µM)

COMPOUND | TESTED TARGET | MEASURED ATTRIBUTE | RELATION | NUMERIC VALUE
CC(=NNC(=S)Nc1ccccc1)c1cccc(C(C)=NNC(=S)Nc2ccccc2)n1 | LOX IMVI melanoma | TGI | > | 100
CC(C)C1=Cc2ccc3c(c2C(=O)C1=O)CCCC3(C)C | LOX IMVI melanoma | TGI | = | 24.7
O=C1CCC2(c3ccc(Cl)cc3)Nc3cc(Cl)ccc3N12 (configuration not stated) | LOX IMVI melanoma | TGI | = | 24.5
Nc1ccc(N=Nc2c(S(=O)(=O)O)cc3ccccc3c2S(=O)(=O)O)cc1 | LOX IMVI melanoma | TGI | > | 100
O=C(O)C(Cl)(Cl)Cl | LOX IMVI melanoma | TGI | > | 100
NCCCN1c2ccccc2Sc2ccc(Cl)cc21 | LOX IMVI melanoma | TGI | = | 7.31
NC(N)=NCCCC(=O)O | LOX IMVI melanoma | TGI | > | 100
CCN(CC)CCNc1nc(N)c(C#N)c(C#N)c1C#N | LOX IMVI melanoma | TGI | > | 10
O=[N+]([O-])C(=C(Nc1ccccc1)Nc1ccccc1)C(Cl)=C(Cl)Cl | LOX IMVI melanoma | TGI | = | 25.1
COc1ccc(CCN(C)C2CCC(C#N)(c3ccc(OC)c(OC)c3)CC2)cc1OC (configuration not stated) | LOX IMVI melanoma | TGI | > | 100
CC(NCCC(c1ccccc1)c1ccccc1)c1ccccc1 (configuration not stated) | LOX IMVI melanoma | TGI | = | 2.93
COC(=O)/C(=C/c1ccc(OC)cc1)C(C(=O)O)=C1CCCC1 | LOX IMVI melanoma | TGI | > | 100

###

TGI reference
- Tested on: MDA-MB-231 breast
- EXPERIMENT SUMMARY: NCI tumour cell line growth inhibition, 48 h

MOLECULE | TGI
CC1OC(c2ccc3c(OCc4ccccc4)cccc3c2O)CC(OCc2ccccc2)[C@H]1OCc1ccccc1 (stereo not given in full) | > 10 µM
NS(=O)(=O)c1ccc(NC(=S)/N=C/C2=C(O)c3ccccc3C2=O)cc1 | > 100 µM
COc1cc(N(CCC#N)CCC#N)ccc1/C(N=Nc1ccc(Cl)cc1)=N/NC(=O)c1cc(Br)ccc1O | > 150 µg/mL
O=C(O)[C@H]1CCCN1CP(=O)(O)CN1CCC[C@@H]1C(=O)O | > 100 µM
O=[N+]([O-])C(=C(Nc1cccc2cccnc12)Nc1cccc2cccnc12)C(Cl)=C(Cl)Cl | 29.6 µM
C=C1C(=O)CC2C1CC(=O)/C(C)=C/CCC(C)(O)C2O (stereo not given) | 25.2 µM
S=c1c2cn[nH]c2nc2scc(-c3ccc(Cl)cc3)n12 | > 100 µM
COc1cc(N=Nc2ccc(O)c3ncccc23)c2ncccc2c1 | > 100 µM
C/C(N=NC(=S)N1CC2CCC(CC2)C1)=C1\C=CC=CN1O | > 100 µM
COC(=O)C(Cc1ccc2c(c1)CCC2)Cc1ccc2c(c1)CCC2 | > 100 µM
